- Test system: HT22 cells
- ASSAY_OVERVIEW: In vitro neuroprotective activity against glutamate-induced cell death (MTS cell viability)
- Assay type: cell-based, mouse
- MEASUREMENT_CONDITIONS: Mus musculus, HT-22; HT22 cells, 10 mM glutamate, 24 hrs, MTS; concentration producing 50% protection; read-out: Protection PC50
ASSAY_ENDPOINT: pEC50
To interpret pEC50, take it as minus log10 of a concentration measured in moles per litre.

QUERY: Any idea what its pEC50 is? The compound is O=C1C=C(NCc2cccc(C(F)(F)F)c2)C(=O)c2ccccc21 [Compound 2u]
RESULT: 7.35

QUERY: Any idea what its pEC50 is? The compound is O=C(Cc1ccccc1)NC1=CC(=O)c2ccccc2C1=O [Compound 3k]
RESULT: 6.18

QUERY: Any idea what its pEC50 is? The compound is CC1=C(N)C(=O)c2ccccc2C1=O [Compound 1e, 2-amino-3-methyl-1,4-naphthoquinone]
RESULT: 5.76

QUERY: Any idea what its pEC50 is? The compound is O=C1C=C(NCC2CCCCC2)C(=O)c2ccccc21 [Compound 2g]
RESULT: 7.27

QUERY: Any idea what its pEC50 is? The compound is O=C1C=C(NC2CCCC2)C(=O)c2ccccc21 [Compound 2f]
RESULT: 6.39

QUERY: Any idea what its pEC50 is? The compound is O=C(NC1=CC(=O)c2ccccc2C1=O)c1cccc(Cl)c1 [Compound 3j]
RESULT: 6.31

QUERY: Any idea what its pEC50 is? The compound is O=C(NC1=CC(=O)c2ccccc2C1=O)c1ccc(Cl)cc1 [Compound 3i]
RESULT: 6.39
